target: human CD33 R69G (human) (UniProt P20138); experiment: SPR, Fab captured, 37C
Sequence (P20138 18-259 R69G): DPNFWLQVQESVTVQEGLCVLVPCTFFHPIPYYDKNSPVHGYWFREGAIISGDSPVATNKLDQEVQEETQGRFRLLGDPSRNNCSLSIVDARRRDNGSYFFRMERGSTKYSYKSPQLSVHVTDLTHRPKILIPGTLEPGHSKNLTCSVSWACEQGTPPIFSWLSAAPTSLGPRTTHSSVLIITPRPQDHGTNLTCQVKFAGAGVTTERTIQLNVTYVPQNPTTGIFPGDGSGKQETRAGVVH

| binder | kon |
| --- | --- |
| ADI-11826 Fab (Fab, V domains shown) VH: EVQLVESGGGLVQPGGSLRLSCAASGFTFPGYWMSWVRQAPGKGLEWVANINQDGSEVYYVDSVKGRFTISRDNAKNSLYLQMNSLRAEDTAVYYCAREANYYGNVGDDYWGQGTLVTVSS VL: DIQMTQSPSSLSASVGDRVTITCRASQSIYNYLNWYQQKPGKAPKLLIYAASSTQSGVPSRFSGSGSGTDFTLTISSLQPEDFATYYCQQAFHVPITFGGGTKVEIK | 1.89e+06 M⁻¹ s⁻¹ |
| ADI-11819 Fab (Fab, V domains shown) VH: EVQLVESGGGLVKPGGSLRLSCAASGFTFSSYAMSWVRQAPGKGLEWVSSISSSSEGIYYADSVKGRFTISRDNAKNSLYLQMNSLRAEDTAVYYCAREGGPYYDSSGYFVYYGMDVWGQGTTVTVSS VL: DIQMTQSPSTLSASVGDRVTITCRASNSISSWLAWYQQKPGKAPKLLIYEASSTKSGVPSRFSGSGSGTEFTLTISSLQPDDFATYYCQQYDDLPTFGGGTKVEIK | 2.78e+06 M⁻¹ s⁻¹ |

Source listed as patent US20220380459A1.
